species: Rattus norvegicus; assay: Open TG-GATES - Regimen: Single; type: toxicity, organism-based, Sprague-Dawley; parameters: regimen Single, gender Male, age 6 weeks; settings: in vivo, po, 300 mg/kg, 24 h, tissue Plasma, route gavage, dose level Middle
Measured gamma-GTP, listed per entry for reference.
# unit: IU/L | format: bare number

C[C@H](CS)C(=O)N1CCC[C@H]1C(=O)O	0.6
O=C(O)c1cc(/N=N/c2ccc(S(=O)(=O)Nc3ccccn3)cc2)ccc1O	1.2

Item under review: CCc1cc(C(N)=S)ccn1 [ETHIONAMIDE] . Reported gamma-GTP?
1.4

Item under review: Clc1ccccc1CN1CCc2sccc2C1 . Reported gamma-GTP?
1

Item under review: O=C(O)c1cn(C2CC2)c2cc(N3CCNCC3)c(F)cc2c1=O . Reported gamma-GTP?
1.8

* * *

species: Rattus norvegicus; assay: Open TG-GATES - Regimen: Daily Repeat; type: toxicity, organism-based, Sprague-Dawley; set-up: regimen Daily Repeat, gender Male, age 6 weeks; settings: in vivo, po, 0 mg/kg, 72 h, tissue Kidney, route gavage, dose level Control, time 3 day
quantity.kind: KIDNEY_TOTAL (g)
# unit: g | format: bare number

Some compounds with recorded KIDNEY_TOTAL:
O=C(O)c1cn(C2CC2)c2cc(N3CCNCC3)c(F)cc2c1=O	1.8
CSc1ccc2c(c1)N(CCC1CCCCN1C)c1ccccc1S2 (stereo not given)	2.2
O=C(O)c1cc(/N=N/c2ccc(S(=O)(=O)Nc3ccccn3)cc2)ccc1O	2
CN(C)CCC=C1c2ccccc2CCc2ccccc21	1.8

Item under review: NC(=O)N/N=C/c1ccc([N+](=O)[O-])o1 . Reported KIDNEY_TOTAL?
1.7

* * *

organism: Rattus norvegicus; experiment: Open TG-GATES - Regimen: Daily Repeat; format: toxicity, organism-based, Sprague-Dawley; design: regimen Daily Repeat, gender Male, age 6 weeks; conditions: in vivo, po, 0 mg/kg, […], tissue Plasma, route gavage, dose level Control, time 14 day
quantity.kind: A/G
Answer with a number only.

Some compounds with recorded A/G:
COc1ccc2c(c1)c(CC(=O)O)c(C)n2C(=O)c1ccc(Cl)cc1 [INDOMETHACIN]	1.8
O=C(O)c1cc(/N=N/c2ccc(S(=O)(=O)Nc3ccccn3)cc2)ccc1O [SULFASALAZINE]	1.3
Cn1c(=O)c2[nH]cnc2n(C)c1=O.O [THEOPHYLLINE]	1.1
COc1ccc(Cc2nccc3cc(OC)c(OC)cc23)cc1OC [PAPAVERINE]	1.1
CN(C)CCC=C1c2ccccc2CCc2ccccc21 [AMITRIPTYLINE]	0.8
CCc1cc(C(N)=S)ccn1 [ETHIONAMIDE]	2.3

Continue with the next compound.
Item under review: NC(=O)N/N=C/c1ccc([N+](=O)[O-])o1 [NITROFURAZONE] . Reported A/G?
0.8

* * *

species: Rattus norvegicus; assay: Open TG-GATES - Regimen: Single; type: toxicity, organism-based, Sprague-Dawley; parameters: regimen Single, gender Male, age 6 weeks; conditions: in vivo, po, 0 mg/kg, 9 h, tissue Plasma, route gavage, dose level Control
quantity.kind: K (meq/L)
# unit: meq/L | format: bare number

Some molecules with recorded K:
COc1ccc(Cc2nccc3cc(OC)c(OC)cc23)cc1OC	4.2
CC(=O)Oc1ccccc1C(=O)O	3.8
CN(C)CCC=C1c2ccccc2CCc2ccccc21	4

Item under review: CCc1cc(C(N)=S)ccn1 [ETHIONAMIDE] . Reported K?
4.7

Item under review: Clc1ccccc1CN1CCc2sccc2C1 . Reported K?
3.7

Item under review: CSc1ccc2c(c1)N(CCC1CCCCN1C)c1ccccc1S2 (configuration not stated) . Reported K?
4.9

Item under review: Cn1c(=O)c2[nH]cnc2n(C)c1=O.O . Reported K?
4.3
